test: NCI Yeast Anticancer Drug Screen. Data for the cln2 rad14 strain (AID 165);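 note: 0% = growth equal to vehicle treated cultures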; conditions: S. cerevisiae cln2 rad14 strain, at 5.0 µM (retest, dose inferred, filed as 0.5), stronger effect = higher value
Compounds without any hit were thinned out: in the full panel of roughly 79,000, 15% have a hit.
measurement_kind: growth inhibition (%)
Numbers only here, please. The scale is %.

Example results:
| compound | growth inhibition (%) |
| --- | --- |
| Cc1cc(O)c2c(c1O)C(=O)C13C(=C2O)C(=O)C2C(O)C1C1C(O)C3C(=O)C3=C(O)c4c(O)cc(C)c(O)c4C(=O)C321 (stereo not given) | 28 |
| COc1ccc(N)c2c1C(=O)c1ccccc1C2=O | 62 |
| c1ccc2c(c1)ccc1c3ccncc3ccc21 | -11 |
| NC(=O)N1c2ccccc2C=Cc2ccccc21 | 61 |
| CC[C@@]1(OC(=O)CN(C)C)C(=O)OCc2c1cc1n(c2=O)Cc2cc3c(N)cccc3nc2-1 | 17 |
| Nc1ccc2c(=S)c3ccccc3[nH]c2c1 | 26 |
| CC(=O)OCC1OC(O[C@H]2C=C[C@@H](C(=O)OCc3ccccc3)n3c(=O)n(-c4ccccc4)c(=O)n32)C(OC(C)=O)C(OC(C)=O)C1OC(C)=O (stereo not given in full) | 13 |
| CNc1ccc(Cc2c[nH]c3ccccc23)cc1 | 27 |

Field request: growth inhibition | item: CC1=CCC(C(C)(C)c2ccc(O)cc2)CC1 (stereo not given)
37

Now this one: N#C/C(=C1C=C(Br)/C(=N\O)C=C\1Cl)c1cccc2ccccc12
25

Now this one: CCN(CC)CC(O)C1CCC(c2ccccc2)CC1 (stereo not given)
28

Values were extracted from PubChem BioAssay (NCI).
